- System Name: Olfr544 (Mus musculus)
- Sequence (E9PX47 entry or part of it): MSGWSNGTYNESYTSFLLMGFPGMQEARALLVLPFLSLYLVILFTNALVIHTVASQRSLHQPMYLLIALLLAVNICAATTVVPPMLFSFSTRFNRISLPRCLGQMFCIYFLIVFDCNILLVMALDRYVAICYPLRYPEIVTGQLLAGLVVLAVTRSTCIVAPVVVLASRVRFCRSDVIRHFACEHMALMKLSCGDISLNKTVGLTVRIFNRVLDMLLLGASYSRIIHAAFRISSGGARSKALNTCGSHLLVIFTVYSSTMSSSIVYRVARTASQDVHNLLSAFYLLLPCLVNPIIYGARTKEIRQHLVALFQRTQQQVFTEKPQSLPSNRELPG
- Assay Method Text: CRE-luciferase reporter gene assay in Hana3A cell line transfected with Olfr544 expression vector
- Condition Parameters: Olfr544 + CRE-Luciferase reporter in Hana3A cells, 18 hours
Experimental Endpoint: EC50 (µM)
// units = µM; emit number, no label

Value lookup for EC50; key = O=C(O)CCCCCCCC(=O)O [azelaic acid, nonanedioic acid]
29.7
